system: Staphylococcus aureus EN1252a gyrA^S84L grlA^S80F; test: microbe, parasite or virus in culture; type: cell-based; conditions: read-out: Antimicrobial activity (MIC)
This section presents molecules with their documented MIC values.

- molecule: "CO[C@H]1/C=C/O[C@@]2(C)Oc3c(C)c(O)c4c(O)c(c(/C=N/N5CCN(C)CC5)c(O)c4c3C2=O)NC(=O)/C(C)=C\\C=C\\[C@H](C)[C@H](O)[C@@H](C)[C@@H](O)[C@@H](C)[C@H](OC(C)=O)[C@@H]1C [rifampin, reference compound]"
  MIC: "4 ng/mL"
- molecule: "COc1c(N2CC3CCCN(C4CCN(C5=C6NC(=O)/C(C)=C\\C=C\\[C@H](C)[C@H](O)[C@@H](C)[C@@H](O)[C@@H](C)[C@H](OC(C)=O)[C@H](C)[C@@H](OC)/C=C/O[C@@]7(C)Oc8c(C)c(O)c(c(c8C7=O)C5=O)C6=O)CC4)C3C2)c(F)cc2c(=O)c(C(=O)O)cn(C3CC3)c12 (stereo partly shown) [Example 35]"
  MIC: "4 to 500 ng/mL"
- molecule: "CO[C@H]1/C=C/O[C@@]2(C)Oc3c(C)c(O)c4c(O)c(c(CN5CCN(c6cc7c(cc6F)c(=O)c(C(=O)O)cn7C6CC6)CC5)c(O)c4c3C2=O)NC(=O)/C(C)=C\\C=C\\[C@H](C)[C@H](O)[C@@H](C)[C@@H](O)[C@@H](C)[C@H](OC(C)=O)[C@@H]1C [Example 12]"
  MIC: "4 to 500 ng/mL"
- molecule: "COc1c(N2CCCC(NC(=O)C3CN(C4=C5NC(=O)/C(C)=C\\C=C\\[C@H](C)[C@H](O)[C@@H](C)[C@@H](O)[C@@H](C)[C@H](OC(C)=O)[C@H](C)[C@@H](OC)/C=C/O[C@@]6(C)Oc7c(C)c(O)c(c(c7C6=O)C4=O)C5=O)C3)C2)c(F)cc2c(=O)c(C(=O)O)cn(C3CC3)c12 (mixture of isomers) [Example 46]"
  MIC: "4 to 500 ng/mL"
- molecule: "CO[C@H]1/C=C/O[C@@]2(C)Oc3c(C)c(O)c4c(c3C2=O)C(=O)C(NCC2CN(c3cc5c(cc3F)c(=O)c(C(=O)O)cn5C3CC3)C2)=C(NC(=O)/C(C)=C\\C=C\\[C@H](C)[C@H](O)[C@@H](C)[C@@H](O)[C@@H](C)[C@H](OC(C)=O)[C@@H]1C)C4=O [Example 25]"
  MIC: "4 to 500 ng/mL"
- molecule: "CO[C@H]1/C=C/O[C@@]2(C)Oc3c(C)c(O)c4c(c3C2=O)C(=O)C(N2CCC(NC3CCN(c5c(F)cc6c(=O)c(C(=O)O)cn(C7CC7)c6c5Cl)C3)CC2)=C(NC(=O)/C(C)=C\\C=C\\[C@H](C)[C@H](O)[C@@H](C)[C@@H](O)[C@@H](C)[C@H](OC(C)=O)[C@@H]1C)C4=O (mixture of isomers) [Example 29]"
  MIC: "4 to 500 ng/mL"
- molecule: "CO[C@H]1/C=C/O[C@@]2(C)Oc3c(C)c(O)c4c(c3C2=O)C(=O)C(N[C@@H]2CCN(c3cc5c(cc3F)c(=O)c(C(=O)O)cn5C3CC3)C2)=C(NC(=O)/C(C)=C\\C=C\\[C@H](C)[C@H](O)[C@@H](C)[C@@H](O)[C@@H](C)[C@H](OC(C)=O)[C@@H]1C)C4=O [Example 8]"
  MIC: "4 to 500 ng/mL"
- molecule: "COc1c(N2CC(NC(=O)C3CN(C4=C5NC(=O)/C(C)=C\\C=C\\[C@H](C)[C@H](O)[C@@H](C)[C@@H](O)[C@@H](C)[C@H](OC(C)=O)[C@H](C)[C@@H](OC)/C=C/O[C@@]6(C)Oc7c(C)c(O)c(c(c7C6=O)C4=O)C5=O)C3)C2)c(F)cc2c(=O)c(C(=O)O)cn(C3CC3)c12 [Example 47]"
  MIC: "4 to 500 ng/mL"
- molecule: "COc1c(N2CCC(N(C)C3=C4NC(=O)/C(C)=C\\C=C\\[C@H](C)[C@H](O)[C@@H](C)[C@@H](O)[C@@H](C)[C@H](OC(C)=O)[C@H](C)[C@@H](OC)/C=C/O[C@@]5(C)Oc6c(C)c(O)c(c(c6C5=O)C3=O)C4=O)C2)c(F)cc2c(=O)c(C(=O)O)cn(C3CC3)c12 (mixture of isomers) [Example 28]"
  MIC: "4 to 500 ng/mL"
- molecule: "CO[C@H]1/C=C/O[C@@]2(C)Oc3c(C)c(O)c4c(c3C2=O)C(=O)C(N2CCC(C(=O)NC3CCN(c5c(F)cc6c(=O)c(C(=O)O)cn(C7CC7)c6c5Cl)C3)CC2)=C(NC(=O)/C(C)=C\\C=C\\[C@H](C)[C@H](O)[C@@H](C)[C@@H](O)[C@@H](C)[C@H](OC(C)=O)[C@@H]1C)C4=O (mixture of isomers) [Example 49]"
  MIC: "4 to 500 ng/mL"
- molecule: "COc1c(N2CCC(NC3CCN(C4=C5NC(=O)/C(C)=C\\C=C\\[C@H](C)[C@H](O)[C@@H](C)[C@@H](O)[C@@H](C)[C@H](OC(C)=O)[C@H](C)[C@@H](OC)/C=C/O[C@@]6(C)Oc7c(C)c(O)c(c(c7C6=O)C4=O)C5=O)CC3)C2)c(F)cc2c(=O)c(C(=O)O)cn(C3CC3)c12 (mixture of isomers) [Example 30]"
  MIC: "4 to 500 ng/mL"
- molecule: "CO[C@H]1/C=C/O[C@@]2(C)Oc3c(C)c(O)c4c(c3C2=O)C(=O)C(N2CCCC3(CCN(c5nc6c(cc5F)c(=O)c(C(=O)O)cn6-c5ccc(F)cc5F)C3)C2)=C(NC(=O)/C(C)=C\\C=C\\[C@H](C)[C@H](O)[C@@H](C)[C@@H](O)[C@@H](C)[C@H](OC(C)=O)[C@@H]1C)C4=O (stereo partly shown) [Example 60]"
  MIC: "4 to 500 ng/mL"
- molecule: "COc1c(N2CCN(C3=C4NC(=O)/C(C)=C\\C=C\\[C@H](C)[C@H](O)[C@@H](C)[C@@H](O)[C@@H](C)[C@H](OC(C)=O)[C@H](C)[C@@H](OC)/C=C/O[C@@]5(C)Oc6c(C)c(O)c(c(c6C5=O)C3=O)C4=O)CC2)c(F)cc2c(=O)c(C(=O)O)cn(C3CC3)c12 [Example 26]"
  MIC: "4 to 500 ng/mL"

---

system: Staphylococcus aureus ATCC29213; assay: MIC, microbroth dilution (NCCLS); type: cell-based; conditions: rifS strain, Cation-Adjusted Mueller-Hinton Broth, 37° C., read-out: Antimicrobial activity (MIC)
This section presents compounds with their documented MIC values.
measured_property: MIC

- compound: "CO[C@H]1/C=C/O[C@@]2(C)Oc3c(C)c(O)c4c(O)c(c(CNC5CCN(c6c(F)cc7c(=O)c(C(=O)O)cn(C8CC8)c7c6Cl)C5)c(O)c4c3C2=O)NC(=O)/C(C)=C\\C=C\\[C@H](C)[C@H](O)[C@@H](C)[C@@H](O)[C@@H](C)[C@H](OC(C)=O)[C@@H]1C (mixture of isomers)"
  tested_on: "Staphylococcus aureus ATCC29213"
  result: "0.004 to 0.5 µg/mL"
- compound: "COc1c(N2CCC(C(C)NC3CCN(C4=C5NC(=O)/C(C)=C\\C=C\\[C@H](C)[C@H](O)[C@@H](C)[C@@H](O)[C@@H](C)[C@H](OC(C)=O)[C@H](C)[C@@H](OC)/C=C/O[C@@]6(C)Oc7c(C)c(O)c(c(c7C6=O)C4=O)C5=O)CC3)C2)c(F)cc2c(=O)c(C(=O)O)cn(C3CC3)c12 (stereo partly drawn)"
  tested_on: "Staphylococcus aureus ATCC29213"
  result: "0.004 to 0.5 µg/mL"
- compound: "COc1c(N2CCC(C3(N4CCN(C5=C6NC(=O)/C(C)=C\\C=C\\[C@H](C)[C@H](O)[C@@H](C)[C@@H](O)[C@@H](C)[C@H](OC(C)=O)[C@H](C)[C@@H](OC)/C=C/O[C@@]7(C)Oc8c(C)c(O)c(c(c8C7=O)C5=O)C6=O)CC4)CC3)C2)c(F)cc2c(=O)c(C(=O)O)cn(C3CC3)c12 (mixture of isomers)"
  tested_on: "Staphylococcus aureus ATCC29213"
  result: "0.004 to 0.5 µg/mL"

---

This section presents compounds with their documented MIC values.
Tested on: Staphylococcus aureus ATCC29213 rpoB^D417Y
Assay: microbe, parasite or virus in culture
Format: cell-based
Conditions: ATCC29213, read-out: Antimicrobial activity (MIC)
Method: Representative compounds were assayed for antimicrobial activity as follows: Minimum Inhibitory Concentrations (“MICs”) were determined by the microbroth dilution method as per NCCLS guidelines (National Committee for Clinical Laboratory Standards. 2000. Methods for dilution antimicrobial susceptibility tests for bacteria that grow aerobically, 5th ed. M7-A5. National Committee for Clinical Laboratory Standards, Wayne, Pa.), except that all growth incubations were conducted at 37° C. […]

- compound: "CO[C@H]1/C=C/O[C@@]2(C)Oc3c(C)c(O)c4c(O)c(c(CN[C@@H]5CCN(c6cc7c(cc6F)c(=O)c(C(=O)O)cn7C6CC6)C5)c(O)c4c3C2=O)NC(=O)/C(C)=C\\C=C\\[C@H](C)[C@H](O)[C@@H](C)[C@@H](O)[C@@H](C)[C@H](OC(C)=O)[C@@H]1C"
  MIC: "0.06 to 32 µg/mL"
- compound: "COc1c(N2CCN(C3=C4NC(=O)/C(C)=C\\C=C\\[C@H](C)[C@H](O)[C@@H](C)[C@@H](O)[C@@H](C)[C@H](OC(C)=O)[C@H](C)[C@@H](OC)/C=C/O[C@@]5(C)Oc6c(C)c(O)c(c(c6C5=O)C3=O)C4=O)CC2)c(F)cc2c(=O)c(C(=O)O)cn(C3CC3)c12"
  MIC: "0.06 to 32 µg/mL"
- compound: "CON=C1CN(c2nc3c(cc2F)c(=O)c(C(=O)O)cn3C2CC2)CC1CNC1CCN(C2=C3NC(=O)/C(C)=C\\C=C\\[C@H](C)[C@H](O)[C@@H](C)[C@@H](O)[C@@H](C)[C@H](OC(C)=O)[C@H](C)[C@@H](OC)/C=C/O[C@@]4(C)Oc5c(C)c(O)c(c(c5C4=O)C2=O)C3=O)CC1 (mixture of isomers)"
  MIC: "0.06 to 32 µg/mL"
